# experimental.parameters: in THF, 298.25 K
quantity.measured: solubility (mole fraction)
Write the number on its own, no unit after it.

Enquiry: Param item = CC1(C)COP(=O)(C(Nc2ccccc2)c2ccccc2)OC1 (stereo unspecified) ; retrieve measured solubility (mole fraction).
Return: 0.0102

----------
# experimental.parameters: in dichloromethane, 278.65 K
quantity.measured: solubility (mole fraction)
Returns: the value as a bare number; no unit string appended.

Enquiry: Dear colleague, I am looking for the recorded solubility (mole fraction) of the following compound: CC1(C)COP(=O)(C(Nc2ccccc2)c2ccccc2)OC1 (stereo unspecified)
Return: 0.00771

----------
# experimental.parameters: in 1,4-dioxane, 308.15 K
quantity.measured: solubility (mole fraction)

Enquiry: Could you share which solubility (mole fraction) value was measured for CC1(C)COP(=O)(C(Nc2ccccc2)c2ccccc2)OC1 (stereo unspecified) ?
Return: 0.0121
